Listing of recorded Cytotox (% viable) M17 cells at 10 μM by entry.
Test system: M17 human neuroblastoma cells
measurement_description: Cytotoxicity, M17 human neuroblastoma cells
Assay type: cell-based
test_context: 10 μM test compound
Answer with a number only, understood to be in %.

Example entries and their recorded answers appear below.
[[record]]
sample_smiles = "Cn1nccc1-n1cnc2c(O)c(Cl)cc(Cl)c2c1=O"
readout_units = "%"
endpoint_result = 94.2

[[record]]
sample_smiles = "CCc1cnc2c(O)cccn2c1=S"
readout_units = "%"
endpoint_result = 73.7

[[record]]
sample_smiles = "CCn1cnc2c(O)c(I)ccc2c1=S"
readout_units = "%"
endpoint_result = 43

[[record]]
sample_smiles = "O=c1c2cccc(O)c2ncn1CC1CC1"
readout_units = "%"
endpoint_result = 88.6

[[record]]
sample_smiles = "CN(C)Cc1nc2c(O)c(Cl)cc(Cl)c2c(=O)n1CC1CC1.Cl"
readout_units = "%"
endpoint_result = 74.5


// returns reported Cytotox (% viable) M17 cells at 10 μM for input CCn1c(CN(C)C)nc2c(O)c(Cl)cc(Cl)c2c1=O.Cl
102.1

Proceed to O=c1c2c(Cl)cc(Cl)c(O)c2ncn1Cc1nccs1
106

// next record O=c1c2cccc(O)c2ncn1Cc1ccccn1
96

====

target_system: Aβ 1-42 (Homo sapiens, UniProt P05067)
Construct: The reaction solutions contained Aβ 1-42 at concentrations
Sequence (P05067 672-713 limits assumed): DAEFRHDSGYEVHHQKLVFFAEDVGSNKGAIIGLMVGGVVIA
measurement_description: Fluorometric H2O2 assay (inhibition of Abeta H2O2 production)
Type: biochemical
test_context: concentration required to inhibit 50% of Abeta H2O2 production; read-out: H2O2 IC50
endpoint_label: IC50

Example compounds with recorded IC50:
[[record]]
compound = "COc1ccccc1-c1cc(-c2ccccc2OC)c2cccnc2c1O [PB 862]"
target_system = "Aβ 1-42 (Homo sapiens, UniProt P05067)"
endpoint_result = "< 770 nM"

[[record]]
compound = "Oc1c(Br)cc(-c2ccccc2)c2cccnc12 [PB 806]"
target_system = "Aβ 1-42 (Homo sapiens, UniProt P05067)"
endpoint_result = "< 900 nM"

[[record]]
compound = "Oc1c(-c2ccccc2)cc(-c2ccccc2)c2cccnc12 [PB 809]"
target_system = "Aβ 1-42 (Homo sapiens, UniProt P05067)"
endpoint_result = "< 1800 nM"


What IC50 value was documented for this compound, Cc1cnc(NC(=O)c2ccc3cccc(O)c3n2)s1 [PB 953] ?
< 420 nM

====

target_system: Aβ 1-42 (Homo sapiens)
Construct: The reaction solutions contained Aβ 1-42 at concentrations
measurement_description: Fluorometric H2O2 assay (inhibition of Abeta H2O2 production)
Format: biochemical
test_context: concentration required to inhibit 50% of Abeta H2O2 production; read-out: H2O2 IC50
IC50 for assorted compounds

As a guide, the following entries are already answered.
[[record]]
compound = "COc1ccc(NCc2cccc3cccnc23)cc1 [PB 1194]"
endpoint_label = "IC50"
endpoint_result = "> 10 µM"

[[record]]
compound = "CCc1c(O)c(=O)ccn1CC.Cl [PB 1270]"
endpoint_label = "IC50"
endpoint_result = "> 10 µM"

[[record]]
compound = "Cc1cccc(-c2cc(Cl)c3cccnc3c2O)c1 [PB 859]"
endpoint_label = "IC50"
endpoint_result = "< 0.67 µM"

[[record]]
compound = "COc1ccccc1-c1cc(I)c(O)c2ncccc12 [PB 863]"
endpoint_label = "IC50"
endpoint_result = "< 0.73 µM"

[[record]]
compound = "Oc1ccccc1-c1cn2ccccc2n1 [PB 1173]"
endpoint_label = "IC50"
endpoint_result = "> 20 µM"

[[record]]
compound = "O=C(CNC(=O)c1cc(O)c2cccc(O)c2n1)NCc1ccccn1 [PB 988]"
endpoint_label = "IC50"
endpoint_result = "> 10 µM"


# input for lookup
Which IC50 is listed for C1CNCCSCCN1 [PB 942] ?
< 0.1 µM

====

System: Abeta in extract of post-mortem human AD brain tissue
measurement_description: BAS: human brain amyloid solubilization assay
Type: biochemical
test_context: max effect across the concentration range, referenced to baseline PBS
Recorded BAS max effect values for a group of molecules are listed next.
Kindly provide the numeric value in % only, without the unit symbol.

Example results:
[[record]]
sample_smiles = "Oc1cccc2cc3ccccc3nc12"
readout_units = "%"
endpoint_result = 175

[[record]]
sample_smiles = "Oc1c(Cl)cc(Cl)c2ccc(-c3ccccn3)nc12"
readout_units = "%"
endpoint_result = 212


Kindly state the measured BAS max effect obtained for CCCCc1ccc2ccc3ccc(CCCC)nc3c2n1 with Abeta in extract of post-mortem human AD brain tissue.
271

Lookup Oc1c(I)cc(-c2ccccc2C(F)(F)F)c2cccnc12
160

Do the same for O=C(O)c1ccccc1Nc1cccc(C(F)(F)F)c1 please
330

What do you have for Cc1cc(C)c2cccnc2c1O ?
293
